runDescription: Solubility of the compound at pseudo-thermodynamic equilibrium after 24 hrs by UPLC/UV/TOF-MS analysis at pH 7.4
Type: physicochemical
assaySetup: buffer
measuredEndpoint: solubility thermodynamic at 24 h (µM)

Would you please look over these solved cases?
[[record]]
smilesrepresentation = "COc1ccc(-c2n[nH]c(NC(=O)CCCCN3CCCN(C(C)=O)CC3)c2C)cc1"
measuredendpoint = "solubility thermodynamic at 24 h"
reportedmeasurement = 151

[[record]]
smilesrepresentation = "COc1ccc(-c2cc(NC(=O)CCCCN3CCNC(=O)CC3)[nH]n2)cc1"
measuredendpoint = "solubility thermodynamic at 24 h"
reportedmeasurement = 117

[[record]]
smilesrepresentation = "O=C(CCCCN1CCCCC1)Nc1cc(-c2ccc(Cl)cc2)n[nH]1"
measuredendpoint = "solubility thermodynamic at 24 h"
reportedmeasurement = 182

[[record]]
smilesrepresentation = "COc1ccc(-c2cc(NC(=O)CCCCN3CCNC(=O)C3)[nH]n2)cc1"
measuredendpoint = "solubility thermodynamic at 24 h"
reportedmeasurement = 92

[[record]]
smilesrepresentation = "COc1ccc(-c2cc(NC(=O)CCCCN3CCCCC3)[nH]n2)cc1"
measuredendpoint = "solubility thermodynamic at 24 h"
reportedmeasurement = 219

[[record]]
smilesrepresentation = "COc1ccc(-c2cc(NC(=O)CCCCN3CCC(C(N)=O)CC3)[nH]n2)cc1"
measuredendpoint = "solubility thermodynamic at 24 h"
reportedmeasurement = 184


a = COc1ccc(-c2cc(NC(=O)CCCCN3CCCNCC3)[nH]n2)cc1
b = O=C(CCCCN1CCCCC1)Nc1cc(-c2ccco2)n[nH]1
Qu. Select the item whose solubility thermodynamic at 24 h value is smaller, choosing between a and b . Selection: enter the item's label.
Ans. a
(a: 153 µM, b: 250 µM)

====

runDescription: Tmax in Long Evans rat at 20 mg/kg, po
Assay type: ADME, organism-based
Set-up: dose 20 mg/kg, route oral
assaySetup: in vivo
measuredEndpoint: Tmax (min)
State just the number; it will be interpreted in min.

Qu. Fill in: Tmax of `COc1ccc(-c2cc(NC(=O)CCCCN3CCCN(C(C)=O)CC3)[nH]n2)cc1` is ___
Ans. 49.8

====

runDescription: Solubility of the compound at pseudo-thermodynamic equilibrium after 24 hrs by UPLC/UV/TOF-MS analysis at pH 7.4
Type: physicochemical
assaySetup: buffer
measuredEndpoint: solubility thermodynamic at 24 h (µM)

[[record]]
compound = "O=C(CCCCN1CCCCC1)Nc1cc(-c2ccncc2)n[nH]1"
reportedmeasurement = 226

[[record]]
compound = "COc1ccc(-c2cc(NC(=O)C(C)CCCN3CCCN(C(C)=O)CC3)[nH]n2)cc1 (stereo not given)"
reportedmeasurement = 128


1 = COc1ccc(-c2c[nH]c(NC(=O)CCCCN3CCCN(C(C)=O)CC3)n2)cc1
2 = COc1ccc(-c2cc(NC(=O)CCCCN3CCCCCC3)n[nH]2)cc1
Qu. Input pair: 1 , 2 . Output: entry with lower solubility thermodynamic at 24 h. Identify your pick by its label.
Ans. 2
(2: 133 µM, 1: 193 µM)

====

runDescription: AUC (0 to infinity) in Long Evans rat at 20 mg/kg, po
Format: ADME, organism-based
Design: time infinity, dose 20 mg/kg, route oral
assaySetup: plasma
measuredEndpoint: AUC(0-inf) (µM·h)
Return type: number; implicit unit µM·h.

Qu. AUC(0-inf) lookup needed for `COc1ccc(-c2cc(NC(=O)CCCCN3CCCN(C(C)=O)CC3)[nH]n2)cc1` , thanks.
Ans. 1.37

====

runDescription: Ratio of drug level in brain to plasma in Long Evans rat at 10 mg/kg, po
Assay type: ADME, organism-based
Set-up: dose 10 mg/kg, route oral
assaySetup: read-out: BPR
measuredEndpoint: Kp
The reply should be a number, written without any unit.

Qu. Kp lookup needed for `COc1ccc(-c2cc(NC(=O)CCCCN3CCCN(C(C)=O)CC3)[nH]n2)cc1` , thanks.
Ans. 0.38

====

runDescription: Cmax in Long Evans rat at 20 mg/kg, po
Format: ADME, organism-based
Parameters: dose 20 mg/kg, route oral
assaySetup: in vivo
measuredEndpoint: Cmax (nM)
Numbers only here, please. The scale is nM.

Qu. Can you look up the measured Cmax of `COc1ccc(-c2cc(NC(=O)CCCCN3CCCN(C(C)=O)CC3)[nH]n2)cc1` for me?
Ans. 180

====

runDescription: Solubility of the compound at pseudo-thermodynamic equilibrium after 24 hrs by UPLC/UV/TOF-MS analysis at pH 7.4
Type: physicochemical
assaySetup: buffer
measuredEndpoint: solubility thermodynamic at 24 h (µM)

[[record]]
smilesrepresentation = "O=C(CCCCN1CCCCC1)Nc1cc(-c2ccc(F)cc2)n[nH]1"
measuredendpoint = "solubility thermodynamic at 24 h"
reportedmeasurement = 237

[[record]]
smilesrepresentation = "COc1ccc(-c2cc(NC(=O)CCCCN3CCC(C)CC3)n[nH]2)cc1"
measuredendpoint = "solubility thermodynamic at 24 h"
reportedmeasurement = 198

[[record]]
smilesrepresentation = "O=C(CCCCN1CCCCC1)Nc1cc(-c2ccc(C(F)(F)F)cc2)n[nH]1"
measuredendpoint = "solubility thermodynamic at 24 h"
reportedmeasurement = 157

[[record]]
smilesrepresentation = "COc1cccc(-c2cc(NC(=O)CCCCN3CCCCC3)[nH]n2)c1"
measuredendpoint = "solubility thermodynamic at 24 h"
reportedmeasurement = 213


====

runDescription: Solubility of the compound at pseudo-thermodynamic equilibrium after 24 hrs by UPLC/UV/TOF-MS analysis at pH 7.4
Format: physicochemical
assaySetup: buffer
measuredEndpoint: solubility thermodynamic at 24 h (µM)

[[record]]
smilesrepresentation = "COc1ccccc1-c1cc(NC(=O)CCCCN2CCCCC2)[nH]n1"
unitname = "µM"
reportedmeasurement = 178

[[record]]
smilesrepresentation = "COc1ccc(-c2cc(NC(=O)CCCCN3CCCN(C(C)=O)CC3)[nH]n2)cc1"
unitname = "µM"
reportedmeasurement = 170

[[record]]
smilesrepresentation = "COc1ccc(-c2n[nH]c(NC(=O)CCCCN3CCCCC3)c2C)cc1"
unitname = "µM"
reportedmeasurement = 188

[[record]]
smilesrepresentation = "O=C(CCCCN1CCCCC1)Nc1cc(-c2ccc(Br)cc2)n[nH]1"
unitname = "µM"
reportedmeasurement = 144

[[record]]
smilesrepresentation = "COc1ccc(-c2cc(NC(=O)CCCCN3CCOCC3)[nH]n2)cc1"
unitname = "µM"
reportedmeasurement = 176

[[record]]
smilesrepresentation = "COc1ccc(-c2cc(NC(=O)CCCCN3CCCOCC3)[nH]n2)cc1"
unitname = "µM"
reportedmeasurement = 176

